Source listed as ChEMBL document CHEMBL4689842.

This section presents compounds with their documented Total Cell Count values.
Test system: HEK-293T
Test: Multiplex assay against HEK293T
Assay type: toxicity, cell-based
Details: human, 48 h, 10 µM, compound concentration 10 uM, replicate 1

COMPOUND | Total Cell Count
CC(C)c1noc(N2CCC(COc3ccc(-c4ccc(S(C)(=O)=O)cc4)nc3)CC2)n1 | 296
COc1ccc(-c2ccc3ncc4c(c3c2)n(-c2ccc(N3CCNCC3)c(C(F)(F)F)c2)c(=O)n4C)cn1.O=C(O)/C=C\C(=O)O | 360
CC(C)NC(=O)N1CC[C@H](NC2=Nc3cc(F)ccc3N(CC(F)F)c3ccc(Cl)cc32)C1 | 181
CC1=C(C(=O)Nc2cc3cn[nH]c3cc2F)C(c2ccc(C(F)(F)F)cc2)CC(=O)N1 (centres undefined) | 261
